// provenance: the supplement of paper PMC10307832

tested on: COR-L23; experiment: relative viability (nuclei count vs DMSO), 5 days (fraction); higher = more cells survive; details: first compound 5 µM
measurement.label: relative viability

compound	measurement.label	numeric.readout
O=C(O)CCCCC(CCSCc1ccccc1)SCc1ccccc1 (configuration not stated) [CPI-613] + COc1cccc2cc(-c3nc([C@H]4CC[C@H](C(=O)O)CC4)n4ncnc(N)c34)[nH]c12 [OSI-027] (partner 0.5 µM)	relative viability	0.738
O=C(O)CCCCC(CCSCc1ccccc1)SCc1ccccc1 (configuration not stated) [CPI-613] + N=C(N)NC(=N)NCCc1ccccc1 [Phenformin] (partner 250 µM)	relative viability	0.438
O=C(O)CCCCC(CCSCc1ccccc1)SCc1ccccc1 (configuration not stated) [CPI-613] + CC1(C)CCC(c2ccc(Cl)cc2)=C(CN2CCN(c3ccc(C(=O)NS(=O)(=O)c4ccc(N[C@H](CCN5CCOCC5)CSc5ccccc5)c(S(=O)(=O)C(F)(F)F)c4)cc3)CC2)C1 [Navitoclax] (partner 0.5 µM)	relative viability	1.07
O=C(O)CCCCC(CCSCc1ccccc1)SCc1ccccc1 (configuration not stated) [CPI-613] + CS(=O)(=O)CCNCc1ccc(-c2ccc3ncnc(Nc4ccc(OCc5cccc(F)c5)c(Cl)c4)c3c2)o1 [Lapatinib] (partner 2 µM)	relative viability	0.826
O=C(O)CCCCC(CCSCc1ccccc1)SCc1ccccc1 (configuration not stated) [CPI-613] + O=C(CCCCCCC(=O)Nc1ccccc1)NO [Vorinostat] (partner 1 µM)	relative viability	0.42
O=C(O)CCCCC(CCSCc1ccccc1)SCc1ccccc1 (configuration not stated) [CPI-613] + O=C(c1cc(Cc2n[nH]c(=O)c3ccccc23)ccc1F)N1CCN(C(=O)C2CC2)CC1 [Olaparib] (partner 8 µM)	relative viability	0.369
O=C(O)CCCCC(CCSCc1ccccc1)SCc1ccccc1 (configuration not stated) [CPI-613] + Cc1cc(Nc2cc(N3CCN(C)CC3)nc(Sc3ccc(NC(=O)C4CC4)cc3)n2)n[nH]1 [Tozasertib] (partner 0.1 µM)	relative viability	0.208

---

tested on: HCC-15; experiment: relative viability (nuclei count vs DMSO), 5 days (fraction); higher = more cells survive; settings: first compound 0.08 µM

molecule	relative viability
O=c1[nH]c2ccccc2n1C1CCN(CCCC(c2ccc(F)cc2)c2ccc(F)cc2)CC1 [Pimozide] + CC(C)C[C@H](NC(=O)[C@H](Cc1ccccc1)NC(=O)c1cnccn1)B(O)O [Bortezomib] (partner 0.002 µM)	1.12
O=c1[nH]c2ccccc2n1C1CCN(CCCC(c2ccc(F)cc2)c2ccc(F)cc2)CC1 [Pimozide] + Cc1nc(NC(=O)N2CCC[C@H]2C(N)=O)sc1-c1ccnc(C(C)(C)C(F)(F)F)c1 [Alpelisib] (partner 2 µM)	0.913

---

test system: HOP-62; assay: relative viability (nuclei count vs DMSO), 5 days (fraction); higher = more cells survive; conditions: first compound 0.005 µM
Just a reminder that ties go to n: only relative viability strictly below 0.9 counts as y.

molecule	category.label
Nc1ccn([C@@H]2O[C@H](CO)[C@@H](O)[C@@H]2O)c(=O)n1 [Cytarabine] + CS(=O)(=O)N1CCN(Cc2cc3nc(-c4cccc5[nH]ncc45)nc(N4CCOCC4)c3s2)CC1 [Pictilisib] (partner 1 µM)	y
COc1cc2nccc(Oc3ccc(NC(=O)Nc4cc(C)on4)c(Cl)c3)c2cc1OC [Tivozanib] + C[C@@H](Oc1cc(-c2cnn(C3CCNCC3)c2)cnc1N)c1c(Cl)ccc(F)c1Cl [Crizotinib] (partner 1 µM)	y
Nc1ccn([C@@H]2O[C@H](CO)[C@@H](O)[C@@H]2O)c(=O)n1 [Cytarabine] + NC(=O)Nc1cc(-c2cccc(F)c2)sc1C(=O)N[C@H]1CCCNC1 [AZD7762] (partner 0.2 µM)	y
COc1cc2nccc(Oc3ccc(NC(=O)Nc4cc(C)on4)c(Cl)c3)c2cc1OC [Tivozanib] + COc1cc2c(Oc3ccc(NC(=O)C4(C(=O)Nc5ccc(F)cc5)CC4)cc3F)ccnc2cc1OCCCN1CCOCC1 [Foretinib] (partner 0.25 µM)	n
COc1cc2nccc(Oc3ccc(NC(=O)Nc4cc(C)on4)c(Cl)c3)c2cc1OC [Tivozanib] + CS(=O)(=O)CCNCc1ccc(-c2ccc3ncnc(Nc4ccc(OCc5cccc(F)c5)c(Cl)c4)c3c2)o1 [Lapatinib] (partner 2 µM)	n
COc1cc2nccc(Oc3ccc(NC(=O)Nc4cc(C)on4)c(Cl)c3)c2cc1OC [Tivozanib] + CC1(C)CCC(c2ccc(Cl)cc2)=C(CN2CCN(c3ccc(C(=O)NS(=O)(=O)c4ccc(N[C@H](CCN5CCOCC5)CSc5ccccc5)c(S(=O)(=O)C(F)(F)F)c4)cc3)CC2)C1 [Navitoclax] (partner 0.5 µM)	n
COc1cc2nccc(Oc3ccc(NC(=O)Nc4cc(C)on4)c(Cl)c3)c2cc1OC [Tivozanib] + CCNC(=O)c1noc(-c2cc(C(C)C)c(O)cc2O)c1-c1ccc(CN2CCOCC2)cc1 [Luminespib] (partner 0.01 µM)	y
Nc1ccn([C@@H]2O[C@H](CO)[C@@H](O)[C@@H]2O)c(=O)n1 [Cytarabine] + CC(=O)c1c(C)c2cnc(Nc3ccc(N4CCNCC4)cn3)nc2n(C2CCCC2)c1=O [Palbociclib] (partner 0.5 µM)	y
COc1cc2nccc(Oc3ccc(NC(=O)Nc4cc(C)on4)c(Cl)c3)c2cc1OC [Tivozanib] + CS(=O)(=O)N1CCN(Cc2cc3nc(-c4cccc5[nH]ncc45)nc(N4CCOCC4)c3s2)CC1 [Pictilisib] (partner 1 µM)	y
Nc1ccn([C@@H]2O[C@H](CO)[C@@H](O)[C@@H]2O)c(=O)n1 [Cytarabine] + Cc1cc(Nc2cc(N3CCN(C)CC3)nc(Sc3ccc(NC(=O)C4CC4)cc3)n2)n[nH]1 [Tozasertib] (partner 0.1 µM)	y

---

system: RERF-LC-KJ; experiment: relative viability (nuclei count vs DMSO), 5 days (fraction); higher = more cells survive; details: first compound 0.01581 µM
The reader will find reported relative viability values listed item by item below.

molecule	relative viability
Nc1ccn([C@@H]2O[C@H](CO)[C@@H](O)[C@@H]2O)c(=O)n1 [Cytarabine] + CC(=O)Nc1cccc(-n2c(=O)n(C3CC3)c(=O)c3c(Nc4ccc(I)cc4F)n(C)c(=O)c(C)c32)c1 [Trametinib] (partner 0.02 µM)	0.862
Nc1ccn([C@@H]2O[C@H](CO)[C@@H](O)[C@@H]2O)c(=O)n1 [Cytarabine] + O=C(c1cc(Cc2n[nH]c(=O)c3ccccc23)ccc1F)N1CCN(C(=O)C2CC2)CC1 [Olaparib] (partner 8 µM)	0.806
Nc1ccn([C@@H]2O[C@H](CO)[C@@H](O)[C@@H]2O)c(=O)n1 [Cytarabine] + Cc1cc(Nc2cc(N3CCN(C)CC3)nc(Sc3ccc(NC(=O)C4CC4)cc3)n2)n[nH]1 [Tozasertib] (partner 0.1 µM)	0.512

---

Measured relative viability of individual entries
test system: A-427; test: relative viability (nuclei count vs DMSO), 5 days (fraction); higher = more cells survive; details: first compound 0.002 µM
measurement.label: relative viability

compound	measurement.label	result
CC(=O)O[C@@]12CO[C@@H]1C[C@H](O)[C@@]1(C)C(=O)[C@H](O)C3=C(C)[C@@H](OC(=O)[C@H](O)[C@@H](NC(=O)OC(C)(C)C)c4ccccc4)C[C@@](O)([C@@H](OC(=O)c4ccccc4)[C@H]21)C3(C)C [Docetaxel] + Cc1cc(Nc2cc(N3CCN(C)CC3)nc(Sc3ccc(NC(=O)C4CC4)cc3)n2)n[nH]1 [Tozasertib] (partner 0.1 µM)	relative viability	0.193
CC(=O)O[C@@]12CO[C@@H]1C[C@H](O)[C@@]1(C)C(=O)[C@H](O)C3=C(C)[C@@H](OC(=O)[C@H](O)[C@@H](NC(=O)OC(C)(C)C)c4ccccc4)C[C@@](O)([C@@H](OC(=O)c4ccccc4)[C@H]21)C3(C)C [Docetaxel] + CC(C)C[C@H](NC(=O)[C@H](Cc1ccccc1)NC(=O)c1cnccn1)B(O)O [Bortezomib] (partner 0.002 µM)	relative viability	0.656
CC(=O)O[C@@]12CO[C@@H]1C[C@H](O)[C@@]1(C)C(=O)[C@H](O)C3=C(C)[C@@H](OC(=O)[C@H](O)[C@@H](NC(=O)OC(C)(C)C)c4ccccc4)C[C@@](O)([C@@H](OC(=O)c4ccccc4)[C@H]21)C3(C)C [Docetaxel] + Nc1nc2[nH]cc(CCc3ccc(C(=O)N[C@@H](CCC(=O)O)C(=O)O)cc3)c2c(=O)[nH]1 [Pemetrexed] (partner 0.2 µM)	relative viability	0.822

---

# Lookup of reported relative viability keyed by entry
tested on: NCI-H522; assay: relative viability (nuclei count vs DMSO), 5 days (fraction); higher = more cells survive; conditions: first compound 158.11 µM
measurement.label: relative viability

compound	measured.target	result
O=C(O)CCCCC(CCSCc1ccccc1)SCc1ccccc1 (stereo not given) [CPI-613] + Cc1nc(Nc2ncc(C(=O)Nc3c(C)cccc3Cl)s2)cc(N2CCN(CCO)CC2)n1 [Dasatinib] (partner 0.075 µM)	NCI-H522	0.84
O=C(O)CCCCC(CCSCc1ccccc1)SCc1ccccc1 (stereo not given) [CPI-613] + CC(=O)c1c(C)c2cnc(Nc3ccc(N4CCNCC4)cn3)nc2n(C2CCCC2)c1=O [Palbociclib] (partner 0.5 µM)	NCI-H522	0.708
O=C(O)CCCCC(CCSCc1ccccc1)SCc1ccccc1 (stereo not given) [CPI-613] + Nc1ncn([C@H]2C[C@H](O)[C@@H](CO)O2)c(=O)n1 [Decitabine] (partner 2 µM)	NCI-H522	0.627
O=C(O)CCCCC(CCSCc1ccccc1)SCc1ccccc1 (stereo not given) [CPI-613] + CCNC(=O)c1noc(-c2cc(C(C)C)c(O)cc2O)c1-c1ccc(CN2CCOCC2)cc1 [Luminespib] (partner 0.01 µM)	NCI-H522	0.974
O=C(O)CCCCC(CCSCc1ccccc1)SCc1ccccc1 (stereo not given) [CPI-613] + O=C(CCCCCCC(=O)Nc1ccccc1)NO [Vorinostat] (partner 1 µM)	NCI-H522	0.741
